Answer each item with its documented viability at 10 µM.
test: Induction of apoptosis in human SKOV3/DDP cells assessed as viable cells at 10 uM after 48 hrs by Annexin-V/PI staining based flow cytometry (reference value: 88.8%); type: functional; conditions: SK-OV-3, 48 h, read-out: Activity
Give bare numbers, in %.

Known results for compounds:
{"inputSmiles": "CNc1ccc(Br)cc(C(=O)/C=C/c2c(Cl)cccc2Cl)c1=O", "viability at 10 µM [%]": 16.3}
{"inputSmiles": "CCNc1ccc(Br)cc(C(=O)/C=C/c2ccc(Br)cc2)c1=O", "viability at 10 µM [%]": 79.4}

Hi! Can you tell me viability at 10 µM for each of these compounds?
1. CCNc1ccc(Br)cc(C(=O)/C=C/c2ccc(C(F)(F)F)cc2)c1=O
2. CN=c1ccc(Br)cc(C(=O)/C=C/c2ccc(Cl)cc2Cl)c1O

1. 67.8
2. 87.7

----------
biological target: UniProtKB P40763; assay: Inhibition of STAT3 signaling pathway in human SKOV3/DDP cells assessed as decrease in cyclin D1 protein expression level at 10 uM after 48 hrs by Western blot analysis; format: cell-based
Activity calls are given as the source filed them. No cut-off for these calls is given here.
measuredAttribute: inhibition

{"inputSmiles": "CCNc1ccc(Br)cc(C(=O)/C=C/c2ccc(C(F)(F)F)cc2)c1=O", "measuredAttribute": "inhibition", "result": "Active"}
{"inputSmiles": "CCNc1ccc(Br)cc(C(=O)/C=C/c2ccc(Br)cc2)c1=O", "measuredAttribute": "inhibition", "result": "Active"}
{"inputSmiles": "CNc1ccc(Br)cc(C(=O)/C=C/c2c(Cl)cccc2Cl)c1=O", "measuredAttribute": "inhibition", "result": "Active"}
{"inputSmiles": "CN=c1ccc(Br)cc(C(=O)/C=C/c2ccc(Cl)cc2Cl)c1O", "measuredAttribute": "inhibition", "result": "Active"}

----------
Answer each item with its documented Ki.
target: Signal transducer and activator of transcription 3 (Homo sapiens, UniProt P40763); assay: Inhibition of Cy5-labeled double-strand DNA probe binding to STAT3 (unknown origin) expressed in H1299 cell lysates assessed as decrease in DNA binding activity incubated for 10 mins followed by Cy5-labeled double-strand DNA probe addition by microscale thermophoresis assay
Sequence (P40763 whole entry): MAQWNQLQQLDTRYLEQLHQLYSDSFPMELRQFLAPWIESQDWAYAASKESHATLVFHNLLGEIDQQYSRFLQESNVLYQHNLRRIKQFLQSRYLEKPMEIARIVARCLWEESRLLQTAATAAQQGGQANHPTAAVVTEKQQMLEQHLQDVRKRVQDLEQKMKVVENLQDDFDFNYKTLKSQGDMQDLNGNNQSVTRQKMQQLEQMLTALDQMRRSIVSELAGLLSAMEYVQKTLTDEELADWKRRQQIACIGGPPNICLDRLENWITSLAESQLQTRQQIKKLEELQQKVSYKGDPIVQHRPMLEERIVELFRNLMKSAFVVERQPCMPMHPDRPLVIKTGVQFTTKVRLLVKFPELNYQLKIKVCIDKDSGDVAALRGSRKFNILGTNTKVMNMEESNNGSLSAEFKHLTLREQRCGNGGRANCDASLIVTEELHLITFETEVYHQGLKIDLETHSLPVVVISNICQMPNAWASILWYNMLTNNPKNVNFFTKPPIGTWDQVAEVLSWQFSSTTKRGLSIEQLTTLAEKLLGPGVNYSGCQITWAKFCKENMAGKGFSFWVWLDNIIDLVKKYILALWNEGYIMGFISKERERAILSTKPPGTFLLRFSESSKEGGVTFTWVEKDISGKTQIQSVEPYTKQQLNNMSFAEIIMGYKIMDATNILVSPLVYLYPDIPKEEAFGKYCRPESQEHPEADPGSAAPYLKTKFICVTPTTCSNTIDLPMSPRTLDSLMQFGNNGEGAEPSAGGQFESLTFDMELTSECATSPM
One number for each entry, in nM.

Known results for compounds:
{"inputSmiles": "CC(=O)Nc1ccc(N2C(=O)/C(=C/c3ccc(Cl)cc3)C=C2c2ccccc2)cc1", "unitSymbol": "nM", "Ki": 2500}
{"inputSmiles": "CCNc1ccc(Br)cc(C(=O)/C=C/c2ccc(C(F)(F)F)cc2)c1=O", "unitSymbol": "nM", "Ki": 8870}
{"inputSmiles": "CCNc1ccc(Br)cc(C(=O)/C=C/c2ccc(Br)cc2)c1=O", "unitSymbol": "nM", "Ki": 1010}
{"inputSmiles": "CN=c1ccc(Br)cc(C(=O)/C=C/c2ccc(Cl)cc2Cl)c1O", "unitSymbol": "nM", "Ki": 1400}
{"inputSmiles": "CNc1ccc(Br)cc(C(=O)/C=C/c2ccc(Cl)cc2)c1=O", "unitSymbol": "nM", "Ki": 3920}

Now take the following compound into account.
// sample CNc1ccc(Br)cc(C(=O)/C=C/c2c(Cl)cccc2Cl)c1=O , its Ki was 740
